- procedure-details: yeast NALP1 reporter signal suppression – S. cerevisiae, luminescence, single concentration, NALP1 inhibitor project, confirmation (AID 488841)
- experimental-setup: S. cerevisiae NALP1/ASC/Caspase-1 reporter, beta-gal luminescence; at 10 µM
The campaign covered roughly 1,400 compounds. About 380 (27%) were called active.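 The calls were made as follows: active = mean inhibition above 50% across duplicate retests at 10 µM; inactive = the rest.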 The list shows a part of the results.
Labels: active, inactive

- compound: "Cc1ccc(Cl)cc1N1CCN(S(C)(=O)=O)CC1"
  answer-label: "inactive"
- compound: "CCOc1cc(CNC2CCCC2)cc(Cl)c1OCc1ccc(F)cc1"
  answer-label: "active"
- compound: "Cc1cc(Cl)c(OCCCn2ccnc2)c(Br)c1"
  answer-label: "inactive"
- compound: "Cc1ccc(C(C)C)cc1OCCN1CCCC1"
  answer-label: "inactive"
- compound: "CCC(=O)Nc1cccc(-c2nc3ccccc3o2)c1"
  answer-label: "active"
- compound: "c1ccc2sc(Sc3ncnc4sccc34)nc2c1"
  answer-label: "inactive"
- compound: "CCOc1cc(CNCc2ccncc2)cc(Br)c1OCc1ccc(F)cc1"
  answer-label: "active"
- compound: "CC(=O)c1c(C)oc2c1C(=O)c1ccccc1C2=O"
  answer-label: "inactive"
- compound: "COc1ccc(OCC#CCNC(C)(C)C)cc1"
  answer-label: "inactive"
- compound: "O=C(CN1CCSC1=NCc1ccccc1)c1ccc(Cl)c(Cl)c1"
  answer-label: "active"
- compound: "O=C(O)/C=C/C(=O)OC1CC2CCC1C2 (stereo not given)"
  answer-label: "inactive"
- compound: "CC(=O)Nc1ccc2nc(CN3CCC(CO)(CCc4ccccc4)CC3)ccc2c1"
  answer-label: "inactive"
- compound: "CC(C)NCCOCCOc1ccc(Cl)cc1Br"
  answer-label: "inactive"
- compound: "Cc1ccc(C)c(NC(=O)CSc2nnc(-c3ccccc3)o2)c1"
  answer-label: "inactive"
- compound: "CN(C)CCNC(=O)COc1ccc(Cl)cc1Cl"
  answer-label: "inactive"
- compound: "COc1ccccc1N1C(=O)C2CCC(c3ccccc3)CC2C1=O (stereo not given)"
  answer-label: "inactive"
- compound: "CNC(=O)c1ccsc1NC(=O)c1sc2ccccc2c1Cl"
  answer-label: "inactive"
- compound: "CCCc1cc(C(=O)Nc2ccc(F)cc2F)no1"
  answer-label: "inactive"
- compound: "COc1ccc(CN2CCNC(=O)C2CC(=O)N(Cc2nccn2C)C(C)C)c(OC)c1 (stereo not given)"
  answer-label: "inactive"
- compound: "Cc1nnc(-c2ccccc2)o1"
  answer-label: "inactive"
- compound: "Cc1cccc(NC(=O)c2ccc(C3SCC(=O)N3CCc3ccccc3)cc2)c1C (stereo not given)"
  answer-label: "inactive"
- compound: "O=C(c1cnn2ccccc12)N1CCc2ccccc21"
  answer-label: "active"
- compound: "O=C(NCCCN1CCc2ccccc2C1)Nc1ccc(Br)cc1"
  answer-label: "inactive"
- compound: "C/C(=N\\N(C)C)C1=C(O)c2ccccc2C1=O"
  answer-label: "inactive"
- compound: "CC(/C=N/NC(=O)c1c(Br)cnn1C)=C\\c1ccccc1"
  answer-label: "active"
